# Test system: P. aeruginosa ATCC BAA-3107 (SEN) and P. aeruginosa LESB58 (MDR)
# TEST SUMMARY: microbe, parasite or virus in culture
# Assay type: cell-based, Pseudomonas aeruginosa
# CONDITION LABEL: Pseudomonas aeruginosa, ATCCBAA3107, Pseudomonas aeruginosa LESB 58 (PA-MDR); across three biological replicates
PROPERTY MEASURED: MIC (µg/mL)

INSERT INTO results (molecule, property_measured, unit_of_measure, result_modifier, measured_number) VALUES
  ('C[C@H]1c2cccc(O)c2C(=O)C2=C(O)[C@]3(O)C(=O)C(C(N)=O)=C(O)[C@@H](N(C)C)[C@@H]3[C@@H](O)[C@@H]21', 'MIC', 'µg/mL', '=', 32),
  ('CN(C)[C@@H]1C(O)=C(C(N)=O)C(=O)[C@@]2(O)C(O)=C3C(=O)c4c(O)c(NC(=O)CN5CCCC5)cc(F)c4C[C@H]3C[C@@H]12', 'MIC', 'µg/mL', '=', 32),
  ('C[C@@H](O)[C@H]1C(=O)N2C(C(=O)O)=C(S[C@@H]3CN[C@H](C(=O)N(C)C)C3)[C@H](C)[C@H]12', 'MIC', 'µg/mL', '=', 2),
  ('CN(C)c1cc(CNCC(C)(C)C)c(O)c2c1C[C@H]1C[C@H]3[C@H](N(C)C)C(O)=C(C(N)=O)C(=O)[C@@]3(O)C(O)=C1C2=O', 'MIC', 'µg/mL', '>', 32),
  ('CNC(C)C1CCC(N)C(OC2C(N)CC(N)C(OC3OCC(C)(O)C(NC)C3O)C2O)O1 (stereo not shown)', 'MIC', 'µg/mL', '>', 32),
  ('Nc1nc(-n2cc(C(=O)O)c(=O)c3cc(F)c(N4CC(O)C4)c(Cl)c32)c(F)cc1F', 'MIC', 'µg/mL', '=', 2),
  ('C[C@@H]1CN2c3c(cc4c(N5C(=O)OC[C@@H]5C)noc4c3F)CC3(C(=O)NC(=O)NC3=O)[C@H]2[C@H](C)O1', 'MIC', 'µg/mL', '>', 32);

---

Listing of entries alongside the reported Relative MIC.
# Tested on: E. coli ATCC 25922 (SEN) and E. coli NCTC13846 (MDR)
# TEST SUMMARY: Adaptive laboratory evolution (ALE), relative MIC of evolved lines
# Format: cell-based, Escherichia coli
# CONDITION LABEL: Escherichia coli NCTC 13846 (EC-MDR), evolved line 2
Where a SMILES comes first, the peptide text is derived from it. Bridges are numbered along the chain shown (N, C = ends). [ ]: non-standard residue; d: D form. The star is where a group is joined. X1 = NC[C@@H](CC(=O)*)c1cccc(Cl)c1; Dab = NCC[C@H](N)C(=O)O; Dap = NC[C@H](N)C(=O)O
PROPERTY MEASURED: Relative MIC

INSERT INTO assay_data (compound, result) VALUES
  ('CC(C)C[C@@H]1NC(=O)[C@@H](Cc2ccccc2)NC(=O)[C@H](CCN)NC(=O)[C@@H](NC(=O)[C@H](CN)NC(=O)[C@@H](NC(=O)C[C@H](CN)c2cccc(Cl)c2)[C@@H](C)O)CCNC(=O)[C@H]([C@@H](C)O)NC(=O)[C@H](CCN)NC(=O)[C@H](CCN)NC1=O [SPR206] (X1-T[Dap][Dab][Dab][dF]L[Dab][Dab]T; lactam 3-C (inferred); N-terminus assumed)', 16),
  ('C[C@@H](O)[C@H]1C(=O)N2C(C(=O)O)=C(S[C@H]3CC[S@@+]([O-])C3)S[C@H]12', 16),
  ('CNC(C)C1CCC(N)C(OC2C(N)CC(N)C(OC3OCC(C)(O)C(NC)C3O)C2O)O1 (stereo not shown)', 32),
  ('CN(C)[C@@H]1C(O)=C(C(N)=O)C(=O)[C@@]2(O)C(O)=C3C(=O)c4c(O)c(NC(=O)CN5CCCC5)cc(F)c4C[C@H]3C[C@@H]12', 16);

---

# Test system: K. pneumoniae ATCC 10031 (SEN) and K. pneumoniae ATCC 700603 (MDR)
# TEST SUMMARY: Adaptive laboratory evolution (ALE), relative MIC of evolved lines
# Format: cell-based, Klebsiella pneumoniae
# CONDITION LABEL: KP-SEN (Klebsiella pneumoniae ATCC 10031), evolved line 9
PROPERTY MEASURED: Relative MIC

INSERT INTO measurements (compound, property_measured, measured_number) VALUES
  ('CNC(C)C1CCC(N)C(OC2C(N)CC(N)C(OC3OCC(C)(O)C(NC)C3O)C2O)O1 (stereo not shown)', 'Relative MIC', 128),
  ('CC(C)c1ccc(Cn2ccc3c4c(N)nc(NC5CC5)nc4ccc32)cc1', 'Relative MIC', 8),
  ('O=c1ccc2ncc(=O)n3c2n1C[C@H]3CN1CCC(NCc2cc3c(cn2)OCCC3)CC1', 'Relative MIC', 1024),
  ('CN(C)c1cc(CNCC(C)(C)C)c(O)c2c1C[C@H]1C[C@H]3[C@H](N(C)C)C(O)=C(C(N)=O)C(=O)[C@@]3(O)C(O)=C1C2=O', 'Relative MIC', 128);

---

# Test system: P. aeruginosa ATCC BAA-3107 (SEN) and P. aeruginosa LESB58 (MDR)
# TEST SUMMARY: microbe, parasite or virus in culture
# Assay type: cell-based, Pseudomonas aeruginosa
# CONDITION LABEL: Pseudomonas aeruginosa ATCC BAA-3107 (PA-SEN); across three biological replicates
# Protocol: This study focused on multiple bacterial strains, as follows. […] A robotic liquid handling system was used to automatically prepare a 11 to 16-step serial dilution in 384-well microtiter plates (Greiner). […] Cell growth was monitored by measuring the optical density (OD600 values, using Biotek Synergy microplate reader). […] Relative MIC was calculated as follows:1 relativeMIC=MICevolved/MICancestor
Where a SMILES comes first, the peptide text is derived from it. Bridges are numbered along the chain shown (N, C = ends). [ ]: non-standard residue; d: D form. The star is where a group is joined. X1 = NC[C@@H](CC(=O)*)c1cccc(Cl)c1; X2 = CC[C@H](C)CCCCC(=O)*; Dab = NCC[C@H](N)C(=O)O; Dap = NC[C@H](N)C(=O)O
PROPERTY MEASURED: MIC (µg/mL)

INSERT INTO results (compound, unit_of_measure, measured_number) VALUES
  ('CC[C@H](C)CCCCC(=O)N[C@@H](CCN)C(=O)N[C@H](C(=O)N[C@@H](CCN)C(=O)N[C@H]1CCNC(=O)[C@H]([C@@H](C)O)NC(=O)[C@H](CCN)NC(=O)[C@H](CCN)NC(=O)[C@H](CC(C)C)NC(=O)[C@@H](Cc2ccccc2)NC(=O)[C@H](CCN)NC1=O)[C@@H](C)O [Polymyxin B] (X2-[Dab]T[Dab][Dab][Dab][dF]L[Dab][Dab]T; lactam 4-C (inferred); N-terminus assumed)', 'µg/mL', 1),
  ('CC(C)c1ccc(Cn2ccc3c4c(N)nc(NC5CC5)nc4ccc32)cc1 [SCH79797]', 'µg/mL', 32),
  ('CC(C)C[C@@H]1NC(=O)[C@@H](Cc2ccccc2)NC(=O)[C@H](CCN)NC(=O)[C@@H](NC(=O)[C@H](CN)NC(=O)[C@@H](NC(=O)C[C@H](CN)c2cccc(Cl)c2)[C@@H](C)O)CCNC(=O)[C@H]([C@@H](C)O)NC(=O)[C@H](CCN)NC(=O)[C@H](CCN)NC1=O [SPR206] (X1-T[Dap][Dab][Dab][dF]L[Dab][Dab]T; lactam 3-C (inferred); N-terminus assumed)', 'µg/mL', 1),
  ('C[C@@H](O)[C@H]1C(=O)N2C(C(=O)O)=C(S[C@H]3CC[S@@+]([O-])C3)S[C@H]12 [Sulopenem]', 'µg/mL', 16);

---

# Test system: K. pneumoniae ATCC 10031 (SEN) and K. pneumoniae ATCC 700603 (MDR)
# TEST SUMMARY: Adaptive laboratory evolution (ALE), relative MIC of evolved lines
# Type: cell-based, Klebsiella pneumoniae
# CONDITION LABEL: Klebsiella pneumoniae ATCC 10031 (KP-SEN), evolved line 1
Listing of entries alongside the reported Relative MIC.
PROPERTY MEASURED: Relative MIC

INSERT INTO measurements (compound, measured_number) VALUES
  ('C[C@@H]1CN2c3c(cc4c(N5C(=O)OC[C@@H]5C)noc4c3F)CC3(C(=O)NC(=O)NC3=O)[C@H]2[C@H](C)O1 [Zoliflodacin]', 1024),
  ('CN(C)[C@@H]1C(O)=C(C(N)=O)C(=O)[C@@]2(O)C(O)=C3C(=O)c4c(O)c(NC(=O)CN5CCCC5)cc(F)c4C[C@H]3C[C@@H]12 [Eravacycline]', 512),
  ('C[C@H]1c2cccc(O)c2C(=O)C2=C(O)[C@]3(O)C(=O)C(C(N)=O)=C(O)[C@@H](N(C)C)[C@@H]3[C@@H](O)[C@@H]21 [Doxycycline]', 32);
